Provenance of the data: patent US5670546A

- Test system: test animals
- METHOD_NOTES: toxicity test: behavioral changes in the test animals observed by the naked eye
- Type: in vivo, KTC-ICR mice
- Design: key: score; normal value 0, higher number = greater side effects
- REPORTED_CONDITIONS: Amount 1 mgg; score, normal value 0
I'd appreciate it if you could supply Convulsion values for the items below.

Query string: # query: Convulsion of entry COc1cc(CC(=O)NCCCc2ccc(C)c(C)c2)ccc1OCCN [Control, reference compound]
Result string: 1

Query string: Also `COc1cc(CC(=O)NCCCc2ccc(C)c(C)c2)ccc1OCCO` ?
Result string: 0

Query string: Also `COc1cc(CC(=O)NCCCc2ccc(C)c(C)c2)ccc1OCCNCCO` ?
Result string: 0

Query string: Also `COc1cc(CC(=O)NCCCc2ccc(C)c(C)c2)ccc1OCCN1CCNCC1` ?
Result string: 0
